Tested on: S. aureus 725
Format: cell-based, Staphylococcus aureus
Assay Conditions: 725, 18 h
Experimental: The minimum inhibitory concentration (MIC) of the Feleucin-K3 analogs was tested by the broth microdilution method. Sensitive bacteria and drug-resistant bacteria were diluted to 1 × 10^6 CFU/mL, according to the McFarland standards. Bacterial suspension and peptide solutions (8–128 μg/mL) were incubated at 37 °C for 18 h. The minimum concentration without obvious bacterial growth was the MIC of the peptides. The stability of the analogs in a physiological salt environment was also investigated. […]
Square brackets hold non-standard residues; d marks the D form. Peptide text beside a SMILES is read from it. ξ: configuration not given here. ξαMeGly(pent-4-enyl) = C=CCCCC(C)(N)C(=O)O
Parameter MIC, S. aureus 725: see the listing below.
Use µg/mL as the unit, but write only the number.

Field request: MIC, S. aureus 725 | item: C=CCCCC(C)(NC(=O)[C@H](CCCCN)NC(=O)[C@H](CCCCN)NC(=O)[C@H](CC(C)C)NC(=O)[C@H](CC(C)C)NC(=O)[C@H](CCCCN)NC(=O)[C@H](CC(C)C)NC(=O)[C@@H](N)Cc1ccccc1)C(=O)N[C@@H](CC(C)C)C(N)=O (stereo partly drawn) [Feleucin-K69] (H-FLKLLKK[ξαMeGly(pent-4-enyl)]L-NH2)
4

Field request: MIC, S. aureus 725 | item: C=CCCCC(C)(NC(=O)[C@H](CC(C)C)NC(=O)[C@H](CC(C)C)NC(=O)[C@H](CCCCN)NC(=O)[C@H](CC(C)C)NC(=O)[C@@H](N)Cc1ccccc1)C(=O)N[C@@H](CCCCN)C(=O)N[C@@H](CC(C)C)C(=O)N[C@@H](CC(C)C)C(N)=O (stereo partly drawn) [Feleucin-K71] (H-FLKLL[ξαMeGly(pent-4-enyl)]KLL-NH2)
4

Field request: MIC, S. aureus 725 | item: C=CCCCC(C)(NC(=O)[C@@H](N)Cc1ccccc1)C(=O)N[C@@H](CCCCN)C(=O)N[C@@H](CC(C)C)C(=O)N[C@@H](CC(C)C)C(=O)N[C@@H](CCCCN)C(=O)N[C@@H](CCCCN)C(=O)N[C@@H](CC(C)C)C(=O)N[C@@H](CC(C)C)C(N)=O (stereo partly drawn) [Feleucin-K67] (H-F[ξαMeGly(pent-4-enyl)]KLLKKLL-NH2)
4

###

Parameter MIC, MRSA 113: see the listing below.
Test system: MRSA 113
Assay type: cell-based, Staphylococcus aureus
Assay Conditions: 113, 18 h
Square brackets hold non-standard residues; d marks the D form. Peptide text beside a SMILES is read from it. ξ: configuration not given here. ξαMeGly(pent-4-enyl) = C=CCCCC(C)(N)C(=O)O
Use µg/mL as the unit, but write only the number.

Answered cases to consult:
Compound	Observed
C=CCCCC(C)(NC(=O)[C@H](CC(C)C)NC(=O)[C@H](CC(C)C)NC(=O)[C@H](CCCCN)NC(=O)[C@H](CC(C)C)NC(=O)[C@@H](N)Cc1ccccc1)C(=O)N[C@@H](CCCCN)C(=O)N[C@@H](CC(C)C)C(=O)N[C@@H](CC(C)C)C(N)=O (stereo partly drawn) [Feleucin-K71] (H-FLKLL[ξαMeGly(pent-4-enyl)]KLL-NH2)	4
C=CCCCC(C)(NC(=O)[C@H](CC(C)C)NC(=O)[C@H](CCCCN)NC(=O)[C@H](CCCCN)NC(=O)[C@H](CC(C)C)NC(=O)[C@H](CC(C)C)NC(=O)[C@H](CCCCN)NC(=O)[C@H](CC(C)C)NC(=O)[C@@H](N)Cc1ccccc1)C(N)=O (stereo partly drawn) [Feleucin-K70] (H-FLKLLKKL[ξαMeGly(pent-4-enyl)]-NH2)	8

Now for a further compound.
Record lookup: for MRSA 113, what MIC, MRSA 113 belongs to C=CCCCC(C)(NC(=O)[C@H](CCCCN)NC(=O)[C@H](CCCCN)NC(=O)[C@H](CC(C)C)NC(=O)[C@H](CC(C)C)NC(=O)[C@H](CCCCN)NC(=O)[C@H](CC(C)C)NC(=O)[C@@H](N)Cc1ccccc1)C(=O)N[C@@H](CC(C)C)C(N)=O (stereo partly drawn) [Feleucin-K69] (H-FLKLLKK[ξαMeGly(pent-4-enyl)]L-NH2) ?
4

###

Tested on: MRSA 113
Assay type: cell-based, Staphylococcus aureus
Assay Conditions: 113, 18 h
Square brackets hold non-standard residues; d marks the D form. Peptide text beside a SMILES is read from it. ξ: configuration not given here. ξαMeGly(pent-4-enyl) = C=CCCCC(C)(N)C(=O)O
Observable: MIC, MRSA 113 (µg/mL)
Use µg/mL as the unit, but write only the number.

Compound	Units Symbol	MIC, MRSA 113
C=CCCCC(C)(NC(=O)[C@@H](N)Cc1ccccc1)C(=O)N[C@@H](CCCCN)C(=O)N[C@@H](CC(C)C)C(=O)N[C@@H](CC(C)C)C(=O)N[C@@H](CCCCN)C(=O)N[C@@H](CCCCN)C(=O)N[C@@H](CC(C)C)C(=O)N[C@@H](CC(C)C)C(N)=O (stereo partly drawn) [Feleucin-K67] (H-F[ξαMeGly(pent-4-enyl)]KLLKKLL-NH2)	µg/mL	4
C=CCCCC(C)(NC(=O)[C@H](CC(C)C)NC(=O)[C@H](CCCCN)NC(=O)[C@H](CC(C)C)NC(=O)[C@@H](N)Cc1ccccc1)C(=O)N[C@@H](CCCCN)C(=O)N[C@@H](CCCCN)C(=O)N[C@@H](CC(C)C)C(=O)N[C@@H](CC(C)C)C(N)=O (stereo partly drawn) [Feleucin-K68] (H-FLKL[ξαMeGly(pent-4-enyl)]KKLL-NH2)	µg/mL	4

Now for a further compound.
Field request: MIC, MRSA 113 | item: C=CCCCC(C)(N)C(=O)N[C@@H](CC(C)C)C(=O)N[C@@H](CCCCN)C(=O)N[C@@H](CC(C)C)C(=O)N[C@@H](CC(C)C)C(=O)N[C@@H](CCCCN)C(=O)N[C@@H](CCCCN)C(=O)N[C@@H](CC(C)C)C(=O)N[C@@H](CC(C)C)C(N)=O (stereo partly drawn) [Feleucin-K65] (H-[ξαMeGly(pent-4-enyl)]LKLLKKLL-NH2)
8

###

Parameter MIC, S. aureus 794: see the listing below.
Test system: S. aureus 794
Format: cell-based, Staphylococcus aureus
Assay Conditions: 794, 18 h
Square brackets hold non-standard residues; d marks the D form. Peptide text beside a SMILES is read from it. ξ: configuration not given here. ξαMeGly(pent-4-enyl) = C=CCCCC(C)(N)C(=O)O
Use µg/mL as the unit, but write only the number.

Field request: MIC, S. aureus 794 | item: C=CCCCC(C)(NC(=O)[C@@H](N)Cc1ccccc1)C(=O)N[C@@H](CCCCN)C(=O)N[C@@H](CC(C)C)C(=O)N[C@@H](CC(C)C)C(=O)N[C@@H](CCCCN)C(=O)N[C@@H](CCCCN)C(=O)N[C@@H](CC(C)C)C(=O)N[C@@H](CC(C)C)C(N)=O (stereo partly drawn) [Feleucin-K67] (H-F[ξαMeGly(pent-4-enyl)]KLLKKLL-NH2)
8

Field request: MIC, S. aureus 794 | item: C=CCCCC(C)(N)C(=O)N[C@@H](CC(C)C)C(=O)N[C@@H](CCCCN)C(=O)N[C@@H](CC(C)C)C(=O)N[C@@H](CC(C)C)C(=O)N[C@@H](CCCCN)C(=O)N[C@@H](CCCCN)C(=O)N[C@@H](CC(C)C)C(=O)N[C@@H](CC(C)C)C(N)=O (stereo partly drawn) [Feleucin-K65] (H-[ξαMeGly(pent-4-enyl)]LKLLKKLL-NH2)
8

Field request: MIC, S. aureus 794 | item: C=CCCCC(C)(NC(=O)[C@H](CC(C)C)NC(=O)[C@H](CC(C)C)NC(=O)[C@H](CCCCN)NC(=O)[C@H](CC(C)C)NC(=O)[C@@H](N)Cc1ccccc1)C(=O)N[C@@H](CCCCN)C(=O)N[C@@H](CC(C)C)C(=O)N[C@@H](CC(C)C)C(N)=O (stereo partly drawn) [Feleucin-K71] (H-FLKLL[ξαMeGly(pent-4-enyl)]KLL-NH2)
16

###

Test system: S. aureus 794
Type: cell-based, Staphylococcus aureus
Assay Conditions: 794, 18 h
Square brackets hold non-standard residues; d marks the D form. Peptide text beside a SMILES is read from it. ξ: configuration not given here. ξαMeGly(pent-4-enyl) = C=CCCCC(C)(N)C(=O)O
Observable: MIC, S. aureus 794 (µg/mL)
Use µg/mL as the unit, but write only the number.

Answered cases to consult:
Compound	MIC, S. aureus 794, µg/mL
C=CCCCC(C)(NC(=O)[C@H](CCCCN)NC(=O)[C@H](CCCCN)NC(=O)[C@H](CC(C)C)NC(=O)[C@H](CC(C)C)NC(=O)[C@H](CCCCN)NC(=O)[C@H](CC(C)C)NC(=O)[C@@H](N)Cc1ccccc1)C(=O)N[C@@H](CC(C)C)C(N)=O (stereo partly drawn) [Feleucin-K69] (H-FLKLLKK[ξαMeGly(pent-4-enyl)]L-NH2)	8
C=CCCCC(C)(NC(=O)[C@H](CC(C)C)NC(=O)[C@H](CCCCN)NC(=O)[C@H](CC(C)C)NC(=O)[C@@H](N)Cc1ccccc1)C(=O)N[C@@H](CCCCN)C(=O)N[C@@H](CCCCN)C(=O)N[C@@H](CC(C)C)C(=O)N[C@@H](CC(C)C)C(N)=O (stereo partly drawn) [Feleucin-K68] (H-FLKL[ξαMeGly(pent-4-enyl)]KKLL-NH2)	8

Now for a further compound.
Field request: MIC, S. aureus 794 | item: C=CCCCC(C)(NC(=O)[C@H](CC(C)C)NC(=O)[C@H](CCCCN)NC(=O)[C@H](CCCCN)NC(=O)[C@H](CC(C)C)NC(=O)[C@H](CC(C)C)NC(=O)[C@H](CCCCN)NC(=O)[C@H](CC(C)C)NC(=O)[C@@H](N)Cc1ccccc1)C(N)=O (stereo partly drawn) [Feleucin-K70] (H-FLKLLKKL[ξαMeGly(pent-4-enyl)]-NH2)
8
